The measurements presented in this section are drawn from ChEMBL document CHEMBL1817604.

# Species: Bos taurus
# experiment: Displacement of [3H]colchicine from biotin-labeled bovine brain tubulin at 5 uM after 2 hrs by liquid scintillation counter
measurement type: Activity (%)

Before answering, review these 3 worked examples.
COc1cc2c(ccn2-c2ccc3ncccc3c2)c(OC)c1OC 72
COc1ccc(/C=C\c2cc(OC)c(OC)c(OC)c2)cc1O 97
COc1cc2c(ccn2-c2ccc3c(ccn3C)c2)c(OC)c1OC 65

A = COc1cc2c(ccn2-c2cccc3c2ccn3C)c(OC)c1OC
B = COc1ccc(-n2ccc3c(OC)c(OC)c(OC)cc32)c(N)c1
### Prompt Lab note: record which item had the higher Activity, A or B . Please reply using the label of the selected record.
### Response A
(A: 83%, B: 44%)

* * *

# System: KB
# experiment: Antiproliferative activity against human KB cells after 72 hrs by methylene blue assay
# Type: functional, cell-based
pIC50: −log10 of the molar value.
measurement type: pIC50

# example entries with known answers
COc1cc2c(ccn2-c2ccc(N(C)C)cc2)c(OC)c1OC 6.83
COc1ccc2c(-n3ccc4c(OC)c(OC)c(OC)cc43)cn(C)c2c1 7.07
COc1cc2c(ccn2-c2cccc3c2ccn3C)c(OC)c1OC 7.49
COc1cc2c(ccn2-c2ccc3c(ccn3C)c2)c(OC)c1OC 7.14
COc1ccc(-n2ccc3c(OC)c(OC)c(OC)cc32)cc1N 5.49
COc1cc2c(ccn2-c2ccnc3ccccc23)c(OC)c1OC 6.67
COc1cc2c(ccn2-c2ccc3ncccc3c2)c(OC)c1OC 7.74
COc1ccc(-n2ccc3c(OC)c(OC)c(OC)cc32)cc1 6.73
COc1ccc(/C=C\c2cc(OC)c(OC)c(OC)c2)cc1O 8.70

A = COc1cc2c(ccn2-c2ccc3ncncc3c2)c(OC)c1OC
B = COc1cc2c(ccn2-c2cccc3ncccc23)c(OC)c1OC
### Prompt Lowest pIC50? choose A or B Identify your selection by its label.
### Response A

* * *

# Tested on: KB
# experiment: Antiproliferative activity against human KB cells after 72 hrs by methylene blue assay
# Format: functional, cell-based
measurement type: IC50 (nM)

A selection of reference data follows.
COc1ccc(-n2ccc3c(OC)c(OC)c(OC)cc32)c(N)c1 102
COc1cc2c(c(OC)c1OC)-c1ccc(OC)c(=O)cc1[C@@H](NC(C)=O)CC2 10

I = COc1ccc2nc(-n3ccc4c(OC)c(OC)c(OC)cc43)ccc2c1
II = COc1ccc(-n2ccc3c(OC)c(OC)c(OC)cc32)cc1O
III = COc1cc2c(ccn2-c2ccc3occc3c2)c(OC)c1OC
### Prompt Put the entries in order of IC50, starting with the largest number. I would appreciate it if you listed the labels in the requested order.
### Response I, III, II
(I: 7370 nM, III: 537 nM, II: 131 nM)

* * *

# experiment: Inhibition of tubulin polymerization
pIC50: −log10 of the molar value.
measurement type: pIC50

Record summary for "COc1ccc2ccc3cc(OC)c(OC)c(OC)c3c2c1" : reported pIC50 = < 4.40
